target: CAMK1G (human) (UniProt Q96NX5); experiment: KINOMEscan competition binding; settings: compound 10.0 µM
Sequence (Q96NX5 whole entry, looked up): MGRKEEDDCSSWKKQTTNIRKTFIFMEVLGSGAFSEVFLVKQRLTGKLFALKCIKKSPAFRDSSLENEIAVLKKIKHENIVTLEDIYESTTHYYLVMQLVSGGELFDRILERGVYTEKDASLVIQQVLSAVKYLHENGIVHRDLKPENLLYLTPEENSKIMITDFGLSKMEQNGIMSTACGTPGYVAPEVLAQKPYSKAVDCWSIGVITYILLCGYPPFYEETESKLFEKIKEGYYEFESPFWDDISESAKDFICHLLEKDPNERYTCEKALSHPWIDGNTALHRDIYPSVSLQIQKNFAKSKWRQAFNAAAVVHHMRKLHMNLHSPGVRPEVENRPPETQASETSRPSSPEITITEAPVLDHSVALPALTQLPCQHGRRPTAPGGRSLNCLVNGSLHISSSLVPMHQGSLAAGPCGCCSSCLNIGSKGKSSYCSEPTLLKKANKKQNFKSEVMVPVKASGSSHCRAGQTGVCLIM
Please go through the items and note down their kinase still bound, per cent of control.

These recorded examples may help you get a feel for the data.
Incoming: Dear colleague, I am looking for the recorded kinase still bound, per cent of control of the following molecule: CNC(=O)Nc1ccc(-c2nc(N3CC4CCC(C3)O4)c3cnn(C4CCC5(CC4)OCCO5)c3n2)cc1
Outgoing: 100%

Incoming: What about this molecule? N#Cc1cc(-c2ccnc(Nc3ccc(-n4cnc(-c5cccnc5)n4)cc3)n2)cc(N2CCOCC2)c1
Outgoing: 48%

Incoming: Note, next up: CCN1CCN(Cc2ccc(NC(=O)c3ccc(C)c(/C=C/c4cnc5[nH]ccc5c4OC)c3)cc2C(F)(F)F)CC1
Outgoing: 100%

Incoming: Please give the result for COc1cc(N2CCC(C(N)=O)CC2)ccc1Nc1nc(N)c(Cl)c(Nc2ccccc2S(=O)(=O)C(C)C)n1 too.
Outgoing: 100%

Below: the item to evaluate.
Incoming: Query: kinase still bound, per cent of control; subject: CCc1nc(-c2cccc(C)c2)c(-c2ccnc(NC(=O)c3ccccc3)c2)s1
Outgoing: 97%

---

target: PKMYT1 (human) (UniProt Q99640); experiment: KINOMEscan competition binding; details: compound 10.0 µM
Sequence (Q99640 whole entry, looked up): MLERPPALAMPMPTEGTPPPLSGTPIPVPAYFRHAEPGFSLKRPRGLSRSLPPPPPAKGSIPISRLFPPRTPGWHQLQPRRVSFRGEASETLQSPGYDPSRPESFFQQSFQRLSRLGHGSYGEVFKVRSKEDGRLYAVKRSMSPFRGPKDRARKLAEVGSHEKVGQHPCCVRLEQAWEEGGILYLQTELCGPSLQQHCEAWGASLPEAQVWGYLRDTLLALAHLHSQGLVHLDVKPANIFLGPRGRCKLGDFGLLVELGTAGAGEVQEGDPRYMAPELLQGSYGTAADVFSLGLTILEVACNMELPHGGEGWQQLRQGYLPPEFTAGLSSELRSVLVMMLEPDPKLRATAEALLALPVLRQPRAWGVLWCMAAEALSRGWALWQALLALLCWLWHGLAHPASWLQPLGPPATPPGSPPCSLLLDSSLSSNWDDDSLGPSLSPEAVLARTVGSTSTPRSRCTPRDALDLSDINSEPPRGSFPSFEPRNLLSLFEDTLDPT
For each entry below, report its kinase still bound, per cent of control value.
Answers are plain numbers, in %.

Some solved entries appear below for comparison.
Incoming: Item: COc1cc2ncnc(Nc3cccc(Cl)c3)c2cc1OC Test system: PKMYT1 (human) (UniProt Q99640) Read-out: kinase still bound, per cent of control Value: ?
Outgoing: 78

Incoming: Please give the result for CCN1CCN(Cc2ccc(NC(=O)c3ccc(C)c(/C=C/c4cnc5[nH]ccc5c4OC)c3)cc2C(F)(F)F)CC1 too.
Outgoing: 71

Incoming: Would you mind doing COc1cc(N2CCC(C(N)=O)CC2)ccc1Nc1nc(N)c(Cl)c(Nc2ccccc2S(=O)(=O)C(C)C)n1 as well?
Outgoing: 100

Incoming: Thanks! And C=CC(=O)Nc1ccc(C(=O)c2sc(Nc3ccc(N4CCN(C)CC4)cc3OC)nc2N)cc1 ?
Outgoing: 96

Incoming: Next compound: CCCS(=O)(=O)Nc1ccc(F)c(C(=O)c2c[nH]c3ncc(Cl)cc23)c1F
Outgoing: 100

Incoming: Likewise for CCOc1cc(N2CCC(O)CC2)ccc1Nc1ncc2c(n1)N(C)c1ccccc1C(=O)N2C ?
Outgoing: 100

Incoming: Okay, and N#C/C(=C1/Nc2ccccc2S1)c1ccnc(NCCc2cccnc2)n1 ?
Outgoing: 95

Incoming: What would you report for O=c1[nH]c2ccccc2n1C1CCN(Cc2ccc(-c3nc4cc5[nH]cnc5cc4nc3-c3ccccc3)cc2)CC1 ?
Outgoing: 94

Look up kinase still bound, per cent of control for the entries below, preserving their order.
1. CC1=C(C(=O)Nc2cc3cn[nH]c3cc2F)C(c2ccc(C(F)(F)F)cc2)CC(=O)N1 (stereo not drawn)
2. CCc1nc(-c2cccc(C)c2)c(-c2ccnc(NC(=O)c3ccccc3)c2)s1

Outgoing:
1: 100; 2: 64

Dear reader, for each entry below, please note its kinase still bound, per cent of control.
1. Cc1cn(-c2cc(C(=O)Nc3ccc(C)c(NC(=O)c4ccno4)c3)cc(C(F)(F)F)c2)cn1
2. COc1cc(C)c(Sc2cnc(NC(=O)c3ccc(CNC(C)C(C)C)cc3)s2)cc1C(=O)N1CCN(C(C)=O)CC1 (stereo not drawn)
3. CNC(=O)Nc1ccc(-c2nc(N3CC4CCC(C3)O4)c3cnn(C4CCC5(CC4)OCCO5)c3n2)cc1
4. CC(=O)c1c(C)c2cnc(Nc3ccc(N4CCNCC4)cn3)nc2n(C2CCCC2)c1=O
5. CCN(CCO)CCCOc1ccc2c(Nc3cc(CC(=O)Nc4cccc(F)c4)[nH]n3)ncnc2c1

Outgoing:
1: 100; 2: 100; 3: 75; 4: 77; 5: 84
